- TESTED ON: T1, human PRLR (Biacore antigen) (human, UniProt P16471 25-234, limits assumed)
- T1 construct: The construct injected over captured antibody is not described (a soluble form is likely); also called huPRLR
- T1 sequence: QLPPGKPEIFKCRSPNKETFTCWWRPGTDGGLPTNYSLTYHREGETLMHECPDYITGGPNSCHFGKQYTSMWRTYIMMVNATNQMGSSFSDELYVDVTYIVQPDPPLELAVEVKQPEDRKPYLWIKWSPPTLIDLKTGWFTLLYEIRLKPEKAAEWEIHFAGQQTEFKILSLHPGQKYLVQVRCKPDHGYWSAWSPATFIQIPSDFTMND
- PROCEDURE TEXT: SPR Biacore
pKd: −log10 of the molar value.
Label met when pKd is at or above 9; otherwise label not met.

Examples from the recorded data:
Ab11 (antibody, V domains shown, murine monoclonal, isotype G1; also called murine Ab11) VH: EVKLVESGGGLVQPGGSLKLSCAASGFTFSDYYMFWVRQTPEKSLEWVAYISNGGGSTYYPDTVKGRFTISRDNAKNTLYLQMSRLKSEDTAMYYCSRQLFYYGSRGAMGYWGQGTSVTVSS VL: DVLMTQTPLSLPVSLGDQASISCRSSQSIVHSNGNTYLEWYLQKPGQSPKLLIYKVSNRFSGVPDRFSGSGSGTDFTLKISRVEAEDLGVYYCFQGSHVPFTFGSGTKLEIK | not met
chAb6 (antibody, human IgG1, kappa, V domains shown, chimeric, murine variable and human G1/kappa constant regions) VH: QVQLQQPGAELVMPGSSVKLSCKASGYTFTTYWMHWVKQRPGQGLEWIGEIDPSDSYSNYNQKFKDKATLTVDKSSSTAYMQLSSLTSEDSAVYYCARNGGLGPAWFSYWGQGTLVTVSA VL: DIVMTQSQKFMSTTVGDRVSITCKASQYVGTAVAWYQQKPGQSPKLLIYSASNRYTGVPDRFTDSGSGTDFTLTISNLQSEDLADYFCQQYSSYPWTFGGGTKLEIKT | met

// inclusive: pKd at least 9? input: Ab8 (antibody, V domains shown, murine monoclonal, isotype G2b; also called murine Ab8) VH: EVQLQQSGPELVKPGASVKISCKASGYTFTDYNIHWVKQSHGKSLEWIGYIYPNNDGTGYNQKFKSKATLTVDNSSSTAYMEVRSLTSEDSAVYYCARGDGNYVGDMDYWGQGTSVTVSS VL: DIQMTQSPASLSASVGETVTITCRASENIYSYLAWYQQKQGKPPQLLVYNAKTLAEGVPSRFSGGGSGTQFSLKINSLQPEDFGSYYCQHHYATPFTFGSGTKLEIK
met
